Readings of Kd for the listed binders
# tested system: recombinant trimeric HA of H1N1 A/California/04/09 (Influenza A virus A/California/04/2009 (H1N1))
# test conditions: remark: other sources report otherwise
Express it in nM; write the number only.

Worked cases, answers included:
binder	observed
Fab fragment of TCN-530 (5248_H10a) (Fab, V domains shown) VH: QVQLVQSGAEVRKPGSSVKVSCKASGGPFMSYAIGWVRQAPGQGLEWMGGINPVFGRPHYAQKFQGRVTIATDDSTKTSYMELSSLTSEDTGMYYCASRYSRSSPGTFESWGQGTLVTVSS VL: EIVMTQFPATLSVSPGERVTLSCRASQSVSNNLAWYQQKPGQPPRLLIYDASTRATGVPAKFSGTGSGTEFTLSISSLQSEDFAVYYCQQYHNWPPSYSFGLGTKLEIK	0.562
Fab fragment of TCN-522 (3212_I12) (Fab, V domains shown) VH: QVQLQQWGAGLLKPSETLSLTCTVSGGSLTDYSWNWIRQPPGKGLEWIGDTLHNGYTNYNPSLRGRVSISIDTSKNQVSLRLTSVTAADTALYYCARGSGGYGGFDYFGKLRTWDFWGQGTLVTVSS VL: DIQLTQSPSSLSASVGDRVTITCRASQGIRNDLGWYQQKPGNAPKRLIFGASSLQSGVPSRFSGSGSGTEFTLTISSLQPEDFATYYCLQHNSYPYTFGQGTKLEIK	0.55
Fab fragment of TCN-523 (5248_A17) (Fab, V domains shown) VH: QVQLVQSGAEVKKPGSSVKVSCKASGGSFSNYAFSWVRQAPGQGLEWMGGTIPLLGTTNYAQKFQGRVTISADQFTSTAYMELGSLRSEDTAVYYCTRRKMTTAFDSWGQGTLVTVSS VL: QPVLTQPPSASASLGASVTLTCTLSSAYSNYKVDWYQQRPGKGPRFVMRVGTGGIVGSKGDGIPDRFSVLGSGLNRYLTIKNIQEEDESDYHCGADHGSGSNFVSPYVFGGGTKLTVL	0.09
Fab fragment of TCN-534 (5249_B02) (Fab, V domains shown) VH: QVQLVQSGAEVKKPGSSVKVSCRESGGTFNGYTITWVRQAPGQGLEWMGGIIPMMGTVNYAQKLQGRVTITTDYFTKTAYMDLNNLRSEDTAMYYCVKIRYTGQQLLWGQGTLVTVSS VL: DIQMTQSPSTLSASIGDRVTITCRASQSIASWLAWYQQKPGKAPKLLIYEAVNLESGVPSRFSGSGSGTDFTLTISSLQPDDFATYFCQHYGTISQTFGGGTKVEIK	0.104

Shift focus to the following entry.
The binder listed as Fab fragment of TCN-535 (5246_P19) (Fab, V domains shown) VH: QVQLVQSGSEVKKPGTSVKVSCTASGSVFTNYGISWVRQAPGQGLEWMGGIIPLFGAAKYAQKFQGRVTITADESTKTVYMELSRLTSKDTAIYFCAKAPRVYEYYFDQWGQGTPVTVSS VL: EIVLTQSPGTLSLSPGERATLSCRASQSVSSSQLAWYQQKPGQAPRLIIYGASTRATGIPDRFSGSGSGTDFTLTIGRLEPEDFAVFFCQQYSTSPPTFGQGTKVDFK has a reported Kd of 0.165

Sourced from patent US20150086555A1
